System: Staphylococcus aureus
ASSAY OVERVIEW: Ratio of MIC for vancomycin to compound for methicillin-resistant Staphylococcus aureus ATCC 43300 by broth microdilution method
Format: functional
MEASURED QUANTITY: Ratio
# output: bare number, no unit

SMILES STRING | TARGET OR TEST SYSTEM | Ratio
CCOC(=O)c1c2c(n3cc(Br)ccc13)C(=O)c1ncccc1C2=O | Staphylococcus aureus | 16
O=C1c2cccnc2C(=O)c2c1c(C(=O)OCCF)c1ccc(Br)cn21 | Staphylococcus aureus | 16

The measured Ratio associated with O=C1c2cccnc2C(=O)c2c1c(C(=O)OCC(F)(F)F)c1ccc(Br)cn21 reads 32

The measured Ratio associated with COC(=O)c1c2c(n3cc(Br)ccc13)C(=O)c1ncccc1C2=O reads 16
